Source listed as paper PMC6309207.

Field: pKd. Provide a value for each of the binders that follow.
subject_of_test: PDE6 γ-subunit with a single Cys at position 35, labeled with 3-(bromo acetyl)-7-diethyl aminocoumarine (UniProt P04972)
protocol_details: other fluorescence titration
Numbers only, as −log10 of the molar value.

binder: hAIPL1 P376S mutant, His6-tagged (natural protein) MDAALLLNVEGVKKTILHGGTGELPNFITGSRVIFHFRTMKCDEERTVIDDSRQVGQPMHIIIGNMFKLEVWEILLTSMRVHEVAEFWCDTIHTGVYPILSRSLRQMAQGKDPTEWHVHTCGLANMFAYHTLGYEDLDELQKEPQPLVFVIELLQVDAPSDYQRETWNLSNHEKMKAVPVLHGEGNRLFKLGRYEEASSKYQEAIICLRNLQTKEKPWEVQWLKLEKMINTLILNYCQCLLKKEEYYEVLEHTSDILRHHPGIVKAYYVRARAHAEVWNEAEAKADLQKVLELEPSMQKAVRRELRLLENRMAEKQEEERLRCRNMLSQGATQPPAEPPTEPPAQSSTEPPAEPPTAPSAELSAGPPAEPATEPPSSPGHSLQH
measurement_label: pKd
measured: 6.02
--
binder: hAIPL1 1–316 lacking the proline-rich domain, His6-tagged (domain or fragment) MDAALLLNVEGVKKTILHGGTGELPNFITGSRVIFHFRTMKCDEERTVIDDSRQVGQPMHIIIGNMFKLEVWEILLTSMRVHEVAEFWCDTIHTGVYPILSRSLRQMAQGKDPTEWHVHTCGLANMFAYHTLGYEDLDELQKEPQPLVFVIELLQVDAPSDYQRETWNLSNHEKMKAVPVLHGEGNRLFKLGRYEEASSKYQEAIICLRNLQTKEKPWEVQWLKLEKMINTLILNYCQCLLKKEEYYEVLEHTSDILRHHPGIVKAYYVRARAHAEVWNEAEAKADLQKVLELEPSMQKAVRRELRLLENRMAEKQ
measurement_label: pKd
measured: 6.14

Next, consider the following binder.
Exam item: For the binder hAIPL1 R302L mutant, His6-tagged (natural protein) MDAALLLNVEGVKKTILHGGTGELPNFITGSRVIFHFRTMKCDEERTVIDDSRQVGQPMHIIIGNMFKLEVWEILLTSMRVHEVAEFWCDTIHTGVYPILSRSLRQMAQGKDPTEWHVHTCGLANMFAYHTLGYEDLDELQKEPQPLVFVIELLQVDAPSDYQRETWNLSNHEKMKAVPVLHGEGNRLFKLGRYEEASSKYQEAIICLRNLQTKEKPWEVQWLKLEKMINTLILNYCQCLLKKEEYYEVLEHTSDILRHHPGIVKAYYVRARAHAEVWNEAEAKADLQKVLELEPSMQKAVLRELRLLENRMAEKQEEERLRCRNMLSQGATQPPAEPPTEPPAQSSTEPPAEPPTAPSAELSAGPPAEPATEPPPSPGHSLQH , what pKd is on record?
Marked response: 6.09
